experiment: log P by HPLC (EEC directive 79/831 Annex V.A8); type: physicochemical; details: HPLC, reversed-phase column (C18), 43° C., acidic range pH 2.7
Please use Y for log P under 4 and N for everything else, ties included.

In plain terms, does CCn1c(C(=O)NC(c2cccc(Cl)c2F)C(F)(F)F)cc2cc(C(=O)NC3(C(N)=S)CC3)c(Cl)cc21 (centres unmarked) come in under 4 for log P?
Y

Regarding CCn1c(C(=O)NC(c2cc(Cl)c(Cl)c(F)c2F)C(F)(F)F)cc2cc(C(=O)NC3(C(N)=S)CC3)c(Cl)cc21 (centres unmarked) , kindly confirm whether its log P is beneath 4.
N

State whether 4 exceeds log P recorded for C#CCn1c(C(=O)NC(c2cc(Cl)c(F)c(Cl)c2)C(F)(F)F)cc2cc(C(=O)NC3(C(N)=S)CC3)c(Cl)cc21 (centres unmarked) .
Y

log P under 4? Item: CCn1c(C(=O)NC(c2cc(F)c(Cl)c(Cl)c2F)C(F)(F)F)cc2cc(C(=O)NC3(C(N)=S)CC3)c(Cl)cc21 (centres unmarked)
N

Say whether its log P is strictly beneath 4. Entry: CCn1c(C(=O)NC(c2ccc(F)c(C(F)(F)F)c2)C(F)(F)F)cc2cc(C(=O)NC3(C(N)=S)CC3)c(Cl)cc21 (centres unmarked)
Y

Check if log P falls below 4 for CCn1c(C(=O)NC(c2ccc(F)c(C(F)(F)F)c2)C(F)F)cc2cc(C(=O)NC3(C(N)=S)CC3)c(Cl)cc21 (centres unmarked) .
Y

Quick check: log P of Cn1c(C(=O)NC(c2ccc(Cl)c(C(F)(F)F)c2)C(F)(F)F)cc2cc(C(=O)NC3(C(N)=S)CC3)c(Cl)cc21 (centres unmarked) under 4?
Y

----------
test system: larvae of the mustard beetle (Phaedon cochleariae); experiment: Phaedon cochleariae spray test (PHAECO); type: in vivo; conditions: 100 g/ha, after 7 days
Measure: efficacy (%)
Record the value in %, omitting the unit from your answer.

Could you share which efficacy value was measured for CCn1c(C(=O)NC(c2ccc(F)c(Cl)c2)C(F)(F)F)cc2cc(C(=O)NC3(C(N)=S)CC3)c(Cl)cc21 (stereo not drawn) ?
100

Tell me the measured efficacy of CCn1c(C(=O)NC(c2cc(Cl)c(F)c(Cl)c2F)C(F)(F)F)cc2cc(C(=O)NC3(C(N)=S)CC3)c(Cl)cc21 (single isomer, unassigned) [I-17] , please.
100

Entry CCn1c(C(=O)NC(c2cc(Cl)c(Cl)c(F)c2F)C(F)(F)F)cc2cc(C(=O)NC3(C(N)=S)CC3)c(Cl)cc21 (stereo not drawn) : reported efficacy = ?
100

----------
assay: log P by HPLC (EEC directive 79/831 Annex V.A8); type: physicochemical; conditions: HPLC, reversed-phase column (C18), 43° C., acidic range pH 2.7
Answer each item with its documented log P.
Respond using a number only.

Given the molecule CCn1c(C(=O)NC(c2cc(F)c(Cl)c(F)c2F)C(F)(F)F)cc2cc(C(=O)NC3(C(N)=S)CC3)c(Cl)cc21 (stereo not drawn) , what is its reported log P?
4.02

For the molecule CCn1c(C(=O)NC(c2cc(Cl)c(Cl)c(Cl)c2)C(F)(F)F)cc2cc(C(=O)NC3(C(N)=S)CC3)c(Cl)cc21 (stereo not drawn) , what log P is on record?
4.33

Item under review: CCn1c(C(=O)NC(c2ccc(Cl)c(C(F)(F)F)c2)C(F)(F)F)cc2cc(C(=O)NC3(C(N)=S)CC3)c(C)cc21 (stereo not drawn) . Reported log P?
3.89
